Biological target: T1, cynomolgus monkey CXCR5 (cynomolgus monkey, UniProt P32302 1-372 (human entry))
T1 construct: also called cynoCXCR5; NHP CXCR5
T1 chain: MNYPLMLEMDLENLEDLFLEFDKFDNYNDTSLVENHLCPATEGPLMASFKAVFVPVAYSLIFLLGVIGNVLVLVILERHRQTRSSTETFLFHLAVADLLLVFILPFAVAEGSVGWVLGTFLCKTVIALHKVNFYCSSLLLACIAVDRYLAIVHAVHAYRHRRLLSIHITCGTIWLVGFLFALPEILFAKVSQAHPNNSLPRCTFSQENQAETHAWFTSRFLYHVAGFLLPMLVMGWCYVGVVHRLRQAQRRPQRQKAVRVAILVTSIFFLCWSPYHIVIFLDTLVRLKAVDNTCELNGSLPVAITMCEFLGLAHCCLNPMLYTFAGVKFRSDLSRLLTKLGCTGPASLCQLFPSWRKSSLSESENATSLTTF
Test: flow cytometry, cynomolgus PBMC B cells
Protocol: The apparent affinity for cell surface CXCR5 of chimeric and humanized CXCR5 fucosylated and afucosylated antibodies was assessed. […] The apparent affinity of CXCR5 mab binding to CXCR5+ cells (B cells, bona fide Tfh cells, and circulating Tfh-like cells) was calculated as the EC50 of equilibrium binding titration curves in which the geometric mean fluorescence intensity (gMFI) of the antigen binding population was quantified by flow cytometry. […]
reported.metric: pEC50
pEC50 is a log-scale quantity: -log10 of the concentration expressed in molar.

Chimeric 11G2 (antibody, human IgG1, kappa, V domains shown, mouse V regions on human IgG1/kappa; also called 11G2 (chimeric)) VH: EVKLVESGGGLVQPGGSLRLSCATSGFTFTDFYMSWVRQPPGRALEWLGFIRNKANGYTTEYSASVKGRFTISRDNSQSILYLQMNTLRAGDSATYYCVRVYGSTLHYWGQGTILTVSS VL: DVVVTQSPDSLAVSLGQRATISCRASESVEYHGTSLMHWYQQKPGQPPKLLIYAASNVESGVPARFSGSGSGTDFSLNIHPVEEGDIAMYFCQQSRKVPWTFGGGTKLEIKR
11.16
Humanized 41A10 142/147 (antibody, human IgG1, V domains shown, also called h41A10 VH (XC147)/VL (XC142)) VH: EVQLVESGGGLVQPGGSLRLSCAASGFTFRSYGMSWVRQAPGKGLEWVATISSGGTYTFYPDILKGRITISRDNAKNSLYLQMNSLRAEDTAVYYCARRGEDYRGALEHWGQGTLVTVSS VL: DIQMTQSPSSLSASVGDRVTITCSASSSVNYIHWYQQKPGKAPKRLIYETSRLASGVPSRFSGSGSGTDYTLTISSLQPEDFATYYCQQWSSNPLTFGQGTKVEIK
8.69
Humanized 11G2 151/152 (antibody, human IgG1, V domains shown, also called h11G2 VH (XC152)/VL (XC151)) VH: EVQLVESGGGLVKPGGSLRLSCAASGFTFTDFYMSWVRQAPGKGLEWLGFIRNKANGYTTEYSAPVKGRFTISRDDSKNTLYLQMNSLKTEDTAVYYCVRVYGSTLHYWGQGTLVTVSS VL: DIQMTQSPSSLSASVGDRVTITCRASESVEYHGTSLMHWYQQKPGKAPKLLIYAASNVESGVPSRFSGSGSGTDFTLTISSLQPEDFATYYCQQSRKVPWTFGQGTKVEIK
11.00
Humanized 11G2 154/157 (antibody, human IgG1, V domains shown, also called h11G2 VH (XC157)/VL (XC154)) VH: EVQLVESGGGLVQPGGSLRLSCATSGFTFTDFYMSWVRQAPGKGLEWVGFIRNKANGYTTEYSASVKGRFTISRDNAKSSLYLQMNSLRAEDTAVYYCVRVYGSTLHYWGQGTLVTVSS VL: DIQMTQSPSSLSASVGDRVTITCRASESVEYHGTSLMHWYQQKPGKAPKLLIYAASNVESGVPSRFSGSGSGTDFTLTISSLQPEDFATYYCQQSRKVPWTFGQGTKVEIK
11.06

Turning now to a further record.
Lab note: Humanized 11G2 153/156 (antibody, human IgG1, V domains shown, also called h11G2 VH (XC156)/VL (XC153)) VH: EVQLVESGGGLVQPGGSLRLSCATSGFTFTDFYMSWVRQAPGKGLEWVGFIRNKANGYTTEYSASVKGRFTISRDNAKNSLYLQMNSLRAEDTAVYYCVRVYGSTLHYWGQGTLVTVSS VL: DIQMTQSPSSLSASVGDRVTITCRASESVEYHGTSLMHWYQQKPGKAPKLLIYAASNVESGVPSRFSGSGSGTDFTLTISSLQPEDFATYFCQQSRKVPWTFGQGTKVEIK gave pEC50 of 11.15

Data credit: patent US20210101970A1
